Test system: A. baumannii
Protocol description: MIC, broth microdilution, CDC/FDA Antibiotic Resistance Isolate Bank (Example 7, Tables 9, 13, 14)
Format: cell-based, Acinetobacter baumannii
Reported conditions: Acinetobacter baumannii, A. baumannii KUB No. 5708, AR Bank #275; OXA-23, OXA-66; read-out: MIC
Attribute measured: MIC

Below are worked cases with known answers.
Query: Provide one value: measured MIC of NCC[C@H](O)C(=O)N[C@@H]1C[C@H](N)[C@@H](O[C@H]2O[C@H](CN)[C@@H](O)[C@H](O)[C@H]2O)[C@H](O)[C@H]1O[C@H]1O[C@H](CO)[C@@H](O)[C@H](N)[C@H]1O
Result: > 64 µg/mL

Query: For CN(C)c1cc(NC(=O)CNC(C)(C)C)c(O)c2c1C[C@H]1C[C@H]3[C@H](N(C)C)C(O)=C(C(N)=O)C(=O)[C@@]3(O)C(O)=C1C2=O , write its MIC.
Result: 0.5 µg/mL

Query: Provide MIC value for the following compound: C[C@@H](O)[C@H]1C(=O)N2C(C(=O)O)=C(S[C@@H]3CN[C@H](C(=O)N(C)C)C3)[C@H](C)[C@H]12
Result: 32 µg/mL

Query: Identify MIC associated with the compound CC(C)(O/N=C(\C(=O)N[C@@H]1C(=O)N2C(C(=O)[O-])=C(C[N+]3(CCNC(=O)c4ccc(O)c(O)c4Cl)CCCC3)CS[C@H]12)c1csc(N)n1)C(=O)O
Result: 0.5 µg/mL

Switching to the query record.
Query: Supply measured MIC of CO/N=C(\C(=O)N[C@@H]1C(=O)N2C(C(=O)[O-])=C(C[n+]3ccn4ncccc43)CS[C@H]12)c1nsc(N)n1 in your reply.
Result: 64 µg/mL
